- Tested on: RPMI-8226 leukemia
- ASSAY NAME: NCI-60 one-dose screen, 48 h (100 = growth as untreated, 0 = no growth, -100 = all killed)
- MEASUREMENT CONTEXT: 10 µM unless noted
- Experimental: Growth inhibition of the RPMI-8226 human tumor cell line is measured as a screen for anti-cancer activity. Cells are grown in 96 well plates and exposed to the test compound for 48 hours. Compounds are tested at a single concentration, which is 10^-5 M for most compounds. The reported endpoint is percent growth (GI% or GIPRCNT), where numbers from 0 - 100% represent growth inhibition, and numbers from -100% - 0 represent cell death. For example, a value of 40 represents 60% growth inhibition. […]
The panel holds about 83,000 compounds, 20% with a hit somewhere; the sample as a whole holds those more often.
PROPERTY LABEL: growth (%)
Please state the figure in %; there is no need to write the unit.

COC(OC)c1ccccc1: 121
O=C(O)C1CCCCN1c1nc(Cl)nc(Cl)n1 (stereo unspecified): 109
CN(C)c1ncnc2c1ccn2C1OC(CO)C(O)C1O (stereo unspecified): 83.7

Exercise: Observed growth on RPMI-8226 leukemia for COc1ccc2c(c1)[nH]c(=O)c1c3cccc(F)c3cn21 , please.
Solution: -49.8

Exercise: Observed growth on RPMI-8226 leukemia for CCCCCCN1CSC(=S)N(CCCCCC)C1 , please.
Solution: 86.5

Exercise: Observed growth on RPMI-8226 leukemia for CN1CCN(Cc2ccc(NC(=O)c3cncc(C#Cc4cnc(N)c5ccncc45)c3)cc2C(F)(F)F)CC1 , please.
Solution: 18.5
